assay: Displacement of [35S]TBPS from GABA-A receptor in Sprague-Dawley rat cerebral cortex cell membranes after 90 mins in presence of GABA by liquid scintillation counting
readoutType: pIC50
Value format note: pIC50 is -log10 of concentration (mol/L); just state the number.

{"structureSmiles": "C[C@@]1(O)CC[C@H]2[C@H](CC[C@@H]3[C@@H]2CC[C@]2(C)[C@@H](C(=O)Cn4cc([N+](=O)[O-])cn4)CC[C@@H]32)C1", "pIC50": 7.74}
{"structureSmiles": "Cc1cnn(CC(=O)[C@H]2CC[C@H]3[C@@H]4CC[C@@H]5C[C@](C)(O)CC[C@@H]5[C@H]4CC[C@]23C)c1", "pIC50": 7.31}
{"structureSmiles": "C[C@@]1(O)CC[C@H]2[C@H](CC[C@@H]3[C@@H]2CC[C@]2(C)[C@@H](C(=O)Cn4cc(C(F)(F)F)cn4)CC[C@@H]32)C1", "pIC50": 8.10}
{"structureSmiles": "COC[C@@]1(O)CC[C@H]2[C@H](CC[C@@H]3[C@@H]2CC[C@]2(C)[C@@H](C(=O)Cn4cc(C#N)cn4)CC[C@@H]32)C1", "pIC50": 7.80}

# input for lookup
Returns the measured pIC50 for the input molecule. Input: "C[C@@]1(O)CC[C@H]2[C@H](CC[C@@H]3[C@@H]2CC[C@]2(C)[C@@H](C(=O)Cn4cc(C#N)nn4)CC[C@@H]32)C1" 6.60

====

Reported values of Emax for individual entries
molecular target: GABA-A receptor; alpha-1/beta-2/gamma-2 (Homo sapiens) (UniProt P14867+P47870+P18507); experiment: Positive allosteric modulation of GABAA receptor alpha1beta2gamma2 (unknown origin) expressed in mouse LTK cells assessed as potentiation of GABA-mediated increase in channel current under holding potential at -80 mV at 0.01 to 10 uM preincubated for 30 secs followed by GABA stimulation for 2 secs by automated patch clamp assay relative to GABA; format: cell-based

Would you please look over these solved cases?
{"structureSmiles": "Cc1ccnn1CC(=O)[C@H]1CC[C@H]2[C@@H]3CC[C@@H]4C[C@](C)(O)CC[C@@H]4[C@H]3CC[C@]12C", "valueMeasured": "> 469%"}
{"structureSmiles": "CC[C@@]1(O)CC[C@H]2[C@H](CC[C@@H]3[C@@H]2CC[C@]2(C)[C@@H](C(=O)Cn4cc(C#N)cn4)CC[C@@H]32)C1", "valueMeasured": "> 297%"}

Reported Emax for "C[C@@]1(O)CC[C@H]2[C@H](CC[C@@H]3[C@@H]2CC[C@]2(C)[C@@H](C(=O)Cn4ncc(C#N)n4)CC[C@@H]32)C1" : what is it? > 154%

Can you share its Emax? I mean this molecule: "Cc1cn(CC(=O)[C@H]2CC[C@H]3[C@@H]4CC[C@@H]5C[C@](C)(O)CC[C@@H]5[C@H]4CC[C@]23C)nn1" > 530%

Fill in the blank: the reported Emax of "COC[C@@]1(O)CC[C@H]2[C@H](CC[C@@H]3[C@@H]2CC[C@]2(C)[C@@H](C(=O)Cn4cc(C#N)cn4)CC[C@@H]32)C1" is ____. > 1130%

Any idea what Emax was measured for "Cc1ccn(CC(=O)[C@H]2CC[C@H]3[C@@H]4CC[C@@H]5C[C@](C)(O)CC[C@@H]5[C@H]4CC[C@]23C)n1" ? > 695%

Values were extracted from ChEMBL document CHEMBL4038335.
